- Test system: Mus musculus
- test description: Antiinflammatory activity against xylene-induced ear edema in Kunming mouse assessed as reduction in ear swelling thickness at 100 mg, ip administered 2 hrs post challenge measured after 30 mins
- Format: functional
Note to self: values exactly at 20% are True. So inhibition (INH) at or above 20% is True, below is False.

[[record]]
molecule = "CC1(C)Cc2c(-c3ccccc3)c(-c3ccc(Cl)cc3)c(C(=O)COC(=O)Cc3ccccc3)n2C1"
category = "True"

[[record]]
molecule = "CC1(C)Cc2c(-c3ccccc3)c(-c3ccc(Cl)cc3)c(C(=O)COC(=O)c3ccc(Cl)cc3Cl)n2C1"
category = "False"

[[record]]
molecule = "COc1ccc(C(=O)OCC(=O)c2c(-c3ccc(Cl)cc3)c(-c3ccccc3)c3n2CC(C)(C)C3)cc1"
category = "False"

[[record]]
molecule = "CCC(=O)OCC(=O)c1c(-c2ccc(Cl)cc2)c(-c2ccccc2)c2n1CC(C)(C)C2"
category = "False"

[[record]]
molecule = "CC(=O)c1c(-c2ccc(Cl)cc2)c(-c2ccccc2)c2n1CC(C)(C)C2"
category = "True"

[[record]]
molecule = "Cc1ccc(-c2cc(C(F)(F)F)nn2-c2ccc(S(N)(=O)=O)cc2)cc1 [CELECOXIB]"
category = "True"

[[record]]
molecule = "COc1ccccc1C(=O)OCC(=O)c1c(-c2ccc(Cl)cc2)c(-c2ccccc2)c2n1CC(C)(C)C2"
category = "False"

[[record]]
molecule = "CCCCCC(=O)c1c(-c2ccc(Cl)cc2)c(-c2ccccc2)c2n1CC(C)(C)C2"
category = "True"

[[record]]
molecule = "CC1(C)Cc2c(-c3ccccc3)c(-c3ccc(Cl)cc3)c(CC(=O)O)n2C1 [LICOFELONE]"
category = "True"

[[record]]
molecule = "CC1(C)Cc2c(-c3ccccc3)c(-c3ccc(Cl)cc3)c(C(=O)CCl)n2C1"
category = "True"

[[record]]
molecule = "CC(=O)OCC(=O)c1c(-c2ccc(Cl)cc2)c(-c2ccccc2)c2n1CC(C)(C)C2"
category = "True"

[[record]]
molecule = "Cc1cc(C(=O)OCC(=O)c2c(-c3ccc(Cl)cc3)c(-c3ccccc3)c3n2CC(C)(C)C3)cc([N+](=O)[O-])c1"
category = "True"

[[record]]
molecule = "CC1(C)Cc2c(-c3ccccc3)c(-c3ccc(Cl)cc3)c(C(=O)COC(=O)c3ccc([N+](=O)[O-])cc3)n2C1"
category = "False"


###

- System: Mus musculus
- test description: Antiinflammatory activity against xylene-induced ear edema in Kunming mouse assessed as reduction in ear swelling weight at 100 mg, ip administered 2 hrs post challenge measured after 30 mins
- Type: functional
Note to self: values exactly at 20% are satisfied. So inhibition (INH) at or above 20% is satisfied, below is not satisfied.

[[record]]
compound = "CC1(C)Cc2c(-c3ccccc3)c(-c3ccc(Cl)cc3)c(C(=O)COC(=O)Cc3ccc(Cl)cc3)n2C1"
category = "satisfied"

[[record]]
compound = "CC1(C)Cc2c(-c3ccccc3)c(-c3ccc(Cl)cc3)c(C(=O)COC(=O)c3ccccc3O)n2C1"
category = "satisfied"

[[record]]
compound = "CC1(C)Cc2c(-c3ccccc3)c(-c3ccc(Cl)cc3)c(C(=O)COC=O)n2C1"
category = "not satisfied"

[[record]]
compound = "CC(C)Cc1ccc(C(C)C(=O)O)cc1 (centres undefined)"
category = "satisfied"

[[record]]
compound = "Cc1cc(C(=O)OCC(=O)c2c(-c3ccc(Cl)cc3)c(-c3ccccc3)c3n2CC(C)(C)C3)cc([N+](=O)[O-])c1"
category = "not satisfied"

[[record]]
compound = "COc1ccccc1C(=O)OCC(=O)c1c(-c2ccc(Cl)cc2)c(-c2ccccc2)c2n1CC(C)(C)C2"
category = "satisfied"

[[record]]
compound = "Cc1ccccc1C(=O)OCC(=O)c1c(-c2ccc(Cl)cc2)c(-c2ccccc2)c2n1CC(C)(C)C2"
category = "not satisfied"

[[record]]
compound = "CC1(C)Cc2c(-c3ccccc3)c(-c3ccc(Cl)cc3)c(CC(=O)O)n2C1"
category = "satisfied"

[[record]]
compound = "Cc1ccc(C(=O)OCC(=O)c2c(-c3ccc(Cl)cc3)c(-c3ccccc3)c3n2CC(C)(C)C3)cc1"
category = "satisfied"

[[record]]
compound = "Cc1cccc(C(=O)OCC(=O)c2c(-c3ccc(Cl)cc3)c(-c3ccccc3)c3n2CC(C)(C)C3)c1"
category = "not satisfied"

[[record]]
compound = "CCC(=O)c1c(-c2ccc(Cl)cc2)c(-c2ccccc2)c2n1CC(C)(C)C2"
category = "satisfied"

[[record]]
compound = "CCC(=O)OCC(=O)c1c(-c2ccc(Cl)cc2)c(-c2ccccc2)c2n1CC(C)(C)C2"
category = "not satisfied"

[[record]]
compound = "CCCCCC(=O)c1c(-c2ccc(Cl)cc2)c(-c2ccccc2)c2n1CC(C)(C)C2"
category = "not satisfied"

[[record]]
compound = "CC1(C)Cc2c(-c3ccccc3)c(-c3ccc(Cl)cc3)c(C(=O)COC(=O)c3ccc(Cl)cc3)n2C1"
category = "satisfied"

[[record]]
compound = "CC1(C)Cc2c(-c3ccccc3)c(-c3ccc(Cl)cc3)c(C(=O)COC(=O)c3ccc(Cl)cc3Cl)n2C1"
category = "satisfied"

[[record]]
compound = "CC1(C)Cc2c(-c3ccccc3)c(-c3ccc(Cl)cc3)c(C(=O)COC(=O)Cc3ccccc3)n2C1"
category = "satisfied"

[[record]]
compound = "CC1(C)Cc2c(-c3ccccc3)c(-c3ccc(Cl)cc3)c(C(=O)COC(=O)c3ccccc3Cl)n2C1"
category = "not satisfied"

[[record]]
compound = "CC1(C)Cc2c(-c3ccccc3)c(-c3ccc(Cl)cc3)c(C(=O)COC(=O)c3cccc(Cl)c3)n2C1"
category = "not satisfied"

[[record]]
compound = "Cc1ccc(-c2cc(C(F)(F)F)nn2-c2ccc(S(N)(=O)=O)cc2)cc1"
category = "satisfied"

[[record]]
compound = "CC1(C)Cc2c(-c3ccccc3)c(-c3ccc(Cl)cc3)c(C(=O)CCl)n2C1"
category = "satisfied"

[[record]]
compound = "COc1ccc(C(=O)OCC(=O)c2c(-c3ccc(Cl)cc3)c(-c3ccccc3)c3n2CC(C)(C)C3)cc1"
category = "not satisfied"

[[record]]
compound = "CC(=O)OCC(=O)c1c(-c2ccc(Cl)cc2)c(-c2ccccc2)c2n1CC(C)(C)C2"
category = "not satisfied"

[[record]]
compound = "CC1(C)Cc2c(-c3ccccc3)c(-c3ccc(Cl)cc3)c(C(=O)COC(=O)c3ccc([N+](=O)[O-])cc3)n2C1"
category = "not satisfied"

[[record]]
compound = "CC(=O)c1c(-c2ccc(Cl)cc2)c(-c2ccccc2)c2n1CC(C)(C)C2"
category = "satisfied"


###

- Tested on: MCF7
- test description: Cytotoxicity against human MCF7 cells assessed as growth inhibition after 72 hrs
- applied conditions: MCF7, 72 h
Overview of reported IC50 across a group of molecules:
property label: IC50 (µM)

[[record]]
smiles_structure = "CC1(C)Cc2c(-c3ccccc3)c(-c3ccc(Cl)cc3)c(C(=O)CCl)n2C1"
experimental_value = 5.8

[[record]]
smiles_structure = "CC(=O)OCC(=O)c1c(-c2ccc(Cl)cc2)c(-c2ccccc2)c2n1CC(C)(C)C2"
experimental_value = 2.5

[[record]]
smiles_structure = "CCCCCC(=O)c1c(-c2ccc(Cl)cc2)c(-c2ccccc2)c2n1CC(C)(C)C2"
experimental_value = 5.4

[[record]]
smiles_structure = "CC1(C)Cc2c(-c3ccccc3)c(-c3ccc(Cl)cc3)c(C(=O)COC(=O)c3ccc(Cl)cc3)n2C1"
experimental_value = 3.9

[[record]]
smiles_structure = "CCC(=O)OCC(=O)c1c(-c2ccc(Cl)cc2)c(-c2ccccc2)c2n1CC(C)(C)C2"
experimental_value = 1.7


###

- System: MCF7
- test description: Cytotoxicity against human MCF7 cells assessed as growth inhibition after 72 hrs
- applied conditions: MCF7, 72 h
Mark YES only when IC50 stays strictly below 6 µM. Values equal to the cut-off are NO.

[[record]]
compound = "COc1ccccc1C(=O)OCC(=O)c1c(-c2ccc(Cl)cc2)c(-c2ccccc2)c2n1CC(C)(C)C2"
category = "YES"

[[record]]
compound = "Cc1ccccc1C(=O)OCC(=O)c1c(-c2ccc(Cl)cc2)c(-c2ccccc2)c2n1CC(C)(C)C2"
category = "NO"

[[record]]
compound = "CC1(C)Cc2c(-c3ccccc3)c(-c3ccc(Cl)cc3)c(C(=O)COC=O)n2C1"
category = "YES"

[[record]]
compound = "CC1(C)Cc2c(-c3ccccc3)c(-c3ccc(Cl)cc3)c(C(=O)COC(=O)c3cccc(Cl)c3)n2C1"
category = "YES"

[[record]]
compound = "CC1(C)Cc2c(-c3ccccc3)c(-c3ccc(Cl)cc3)c(C(=O)COC(=O)c3ccc([N+](=O)[O-])cc3)n2C1"
category = "YES"

[[record]]
compound = "CC1(C)Cc2c(-c3ccccc3)c(-c3ccc(Cl)cc3)c(CC(=O)O)n2C1 [LICOFELONE]"
category = "YES"

[[record]]
compound = "CC(=O)c1c(-c2ccc(Cl)cc2)c(-c2ccccc2)c2n1CC(C)(C)C2"
category = "YES"

[[record]]
compound = "O=c1[nH]cc(F)c(=O)[nH]1 [FLUOROURACIL]"
category = "YES"

[[record]]
compound = "Cc1ccc(C(=O)OCC(=O)c2c(-c3ccc(Cl)cc3)c(-c3ccccc3)c3n2CC(C)(C)C3)cc1"
category = "NO"

[[record]]
compound = "CC1(C)Cc2c(-c3ccccc3)c(-c3ccc(Cl)cc3)c(C(=O)COC(=O)c3ccc(Cl)cc3Cl)n2C1"
category = "NO"

[[record]]
compound = "CC1(C)Cc2c(-c3ccccc3)c(-c3ccc(Cl)cc3)c(C(=O)COC(=O)c3ccccc3Cl)n2C1"
category = "YES"

[[record]]
compound = "CC1(C)Cc2c(-c3ccccc3)c(-c3ccc(Cl)cc3)c(C(=O)COC(=O)Cc3ccccc3)n2C1"
category = "YES"

[[record]]
compound = "CC1(C)Cc2c(-c3ccccc3)c(-c3ccc(Cl)cc3)c(C(=O)COC(=O)Cc3ccc(Cl)cc3)n2C1"
category = "NO"

[[record]]
compound = "Cc1cccc(C(=O)OCC(=O)c2c(-c3ccc(Cl)cc3)c(-c3ccccc3)c3n2CC(C)(C)C3)c1"
category = "YES"

[[record]]
compound = "CC1(C)Cc2c(-c3ccccc3)c(-c3ccc(Cl)cc3)cn2C1"
category = "YES"

[[record]]
compound = "CCC(=O)c1c(-c2ccc(Cl)cc2)c(-c2ccccc2)c2n1CC(C)(C)C2"
category = "NO"

[[record]]
compound = "COc1ccc(C(=O)OCC(=O)c2c(-c3ccc(Cl)cc3)c(-c3ccccc3)c3n2CC(C)(C)C3)cc1"
category = "NO"

[[record]]
compound = "CC1(C)Cc2c(-c3ccccc3)c(-c3ccc(Cl)cc3)c(C(=O)COC(=O)c3ccccc3O)n2C1"
category = "NO"

